- System: pancreatic lipase (Sus scrofa)
- Measurement notes: Inhibition of pancreatic lipase (unknown origin) at 100 uM using p-nitrophenylbutyrate as substrate preincubated for 10 mins followed by substrate addition measured after 20 mins
Classification field: enter TRUE for inhibition values not below 40%, FALSE for values below it.

{"Smiles notation": "COc1ccc(-c2cc3c(c(-c4ccc(OC)c(OC)c4OC)c2O)CC[C@@H]2[C@@H]3CC[C@]3(C)C(=O)CC[C@@H]23)c(OC)c1OC", "Target of assay": "pancreatic lipase (Sus scrofa)", "Class name": "FALSE"}
{"Smiles notation": "C[C@]12CC[C@@H]3c4cc(-c5ccccc5F)c(O)c(-c5ccccc5F)c4CC[C@H]3[C@@H]1CCC2=O", "Target of assay": "pancreatic lipase (Sus scrofa)", "Class name": "TRUE"}
{"Smiles notation": "C[C@]12CC[C@@H]3c4ccc(O)c(-c5ccc(Cl)cc5)c4CC[C@H]3[C@@H]1CCC2=O", "Target of assay": "pancreatic lipase (Sus scrofa)", "Class name": "TRUE"}
{"Smiles notation": "C[C@]12CC[C@@H]3c4cc(-c5ccc(C(F)(F)F)cc5)c(O)c(-c5ccc(C(F)(F)F)cc5)c4CC[C@H]3[C@@H]1CCC2=O", "Target of assay": "pancreatic lipase (Sus scrofa)", "Class name": "TRUE"}
{"Smiles notation": "COc1ccc(-c2c(O)ccc3c2CC[C@@H]2[C@@H]3CC[C@]3(C)C(=O)CC[C@@H]23)cc1", "Target of assay": "pancreatic lipase (Sus scrofa)", "Class name": "TRUE"}
{"Smiles notation": "C[C@]12CC[C@@H]3c4ccc5oc6ccccc6c5c4CC[C@H]3[C@@H]1CCC2=O", "Target of assay": "pancreatic lipase (Sus scrofa)", "Class name": "FALSE"}
{"Smiles notation": "COc1ccc(-c2c(O)ccc3c2CC[C@@H]2[C@@H]3CC[C@]3(C)C(=O)CC[C@@H]23)c(OC)c1OC", "Target of assay": "pancreatic lipase (Sus scrofa)", "Class name": "TRUE"}
{"Smiles notation": "Cc1ccc(-c2c(O)ccc3c2CC[C@@H]2[C@@H]3CC[C@]3(C)C(=O)CC[C@@H]23)cc1", "Target of assay": "pancreatic lipase (Sus scrofa)", "Class name": "FALSE"}
